MIC reference
# Tested on: E. coli DPD2444 (yhcP−)
# measurement.protocol: microbe, parasite or virus in culture
# Type: cell-based
# run.parameters: Escherichia coli, read-out: MIC, DPD2444 (yhcP−)
Return type: number; implicit unit mM.

O=C(O)c1cccc(O)c1O [2,3-dihydroxybenzoic acid]	10
O=C(O)c1ccccc1-c1ccccc1 [2-biphenylcarboxylic acid]	2.5
Oc1ccc2ccc(O)cc2c1 [2,7-dihydroxynaphthalene]	0.31
O=C(O)C=Cc1ccc(O)cc1 [pHCA, para-hydroxycinnamic acid]	10

Here is another compound to look at.
*Q* Item under review: COc1cccc(OC)c1O [2,6-dimethoxyphenol] . Reported MIC?
*A* 5

Where these numbers come from: patent US7279321B2
